- Test system: SK-MEL-3 (melanoma)
- ASSAY EXPLANATION: Cell proliferation measurement (Cell Titer Glo), SK-MEL-3
- Type: cell-based
- MEASUREMENT SETUP: Homo sapiens, SK-MEL3, SK-MEL-3 cells, 72 h treatment, read-out: Anti-proliferation IC50 SK-MEL-3 (melanoma)
READOUT: IC50 (nM)
Supply the numeric figure in nM, leaving out any unit text.

- O=C1CCC(c2ccc(-c3ccc(F)c(F)c3)c(F)c2)=NN1: 9.51
- CNc1ccc(C2=NNC(=O)CC2)cc1C(F)(F)F: 67.6
- Cc1cc(C2=NNC(=O)CC2)ccc1-c1cccc(F)c1: 58.2

Measured IC50 of O=C1CCC(c2ccc(N3CC(F)(F)C3)c(C(F)(F)F)c2)=NN1 : 10.4
